- System Name: rat hepatic microsomal HMG CoA reductase (Rattus norvegicus, UniProt P51639)
- Construct: rat hepatic microsomal HMG CoA reductase; from tissue; host or cells: rat liver microsomes
- Run Description: inhibition of rat hepatic microsomal HMG CoA reductase activity in vitro (Table I)
- Format: biochemical
- Assay Conditions: 0.0274 micrograms/ml
Entries and their measured inhibition at 0.0274 µg/mL follow.
Assay Metric: inhibition at 0.0274 µg/mL

{"Smiles Record": "COC(=O)C[C@H](O)C[C@H](O)/C=C/c1c(-c2ccc(F)cc2)c2ccccc2c(=O)n1C(C)C", "Result": "13%"}
{"Smiles Record": "CC(C)c1c(/C=C/[C@@H](O)C[C@@H](O)CC(=O)O)n(-c2ccc(F)cc2)c(=O)c2ccccc12", "Result": "15%"}
{"Smiles Record": "CC(C)n1c(/C=C/[C@@H](O)C[C@@H](O)CC(=O)O)c(-c2ccc(F)cc2)c2ccccc2c1=O", "Result": "15%"}
{"Smiles Record": "CC(C)c1c(/C=C/[C@@H]2C[C@@H](O)CC(=O)O2)n(-c2ccc(F)cc2)c(=O)c2ccccc12", "Result": "25%"}

###

Entries and their measured inhibition at 2.22 µg/mL follow.
- System Name: rat hepatic microsomal HMG CoA reductase (Rattus norvegicus)
- Construct: rat hepatic microsomal HMG CoA reductase; from tissue; host or cells: rat liver microsomes
- Sequence (P51639 1-887): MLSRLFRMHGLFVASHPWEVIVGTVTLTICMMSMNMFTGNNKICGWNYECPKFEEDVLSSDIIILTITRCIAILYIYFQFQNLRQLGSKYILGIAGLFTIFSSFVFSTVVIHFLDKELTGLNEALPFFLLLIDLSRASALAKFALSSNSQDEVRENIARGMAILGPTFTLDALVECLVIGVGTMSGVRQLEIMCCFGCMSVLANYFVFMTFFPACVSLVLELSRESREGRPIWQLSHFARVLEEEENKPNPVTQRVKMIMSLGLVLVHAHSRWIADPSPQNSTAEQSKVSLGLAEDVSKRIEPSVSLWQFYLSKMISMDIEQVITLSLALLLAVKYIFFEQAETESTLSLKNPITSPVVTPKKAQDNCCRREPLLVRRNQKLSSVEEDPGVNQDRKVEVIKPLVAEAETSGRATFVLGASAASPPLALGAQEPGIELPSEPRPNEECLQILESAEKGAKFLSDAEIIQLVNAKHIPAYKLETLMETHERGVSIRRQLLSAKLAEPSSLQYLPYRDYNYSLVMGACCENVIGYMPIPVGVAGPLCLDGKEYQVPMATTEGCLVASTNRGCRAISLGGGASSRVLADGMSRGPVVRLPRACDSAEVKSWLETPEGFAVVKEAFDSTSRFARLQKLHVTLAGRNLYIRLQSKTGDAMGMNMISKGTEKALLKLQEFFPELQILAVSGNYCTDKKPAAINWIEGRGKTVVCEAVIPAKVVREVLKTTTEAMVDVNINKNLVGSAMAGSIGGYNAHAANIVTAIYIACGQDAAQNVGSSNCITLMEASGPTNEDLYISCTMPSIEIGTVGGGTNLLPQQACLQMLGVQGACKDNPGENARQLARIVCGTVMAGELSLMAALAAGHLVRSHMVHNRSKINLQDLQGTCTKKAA
- Run Description: inhibition of rat hepatic microsomal HMG CoA reductase activity in vitro (Table I)
- Assay type: biochemical
- Assay Conditions: 2.22 micrograms/ml
Assay Metric: inhibition at 2.22 µg/mL (%)

{"Molecule": "O=C1C[C@H](O)C[C@@H](/C=C/c2c(-c3ccc(F)cc3)c3ccccc3c(=O)n2CC2CC2)O1 [X]", "Assay Metric": "inhibition at 2.22 µg/mL", "Unit Annotation": "%", "Measured Number": 83}
{"Molecule": "CC(C)n1c(/C=C/[C@@H](O)C[C@@H](O)CC(=O)O)c(-c2ccc(F)cc2)c2ccccc2c1=O [AF]", "Assay Metric": "inhibition at 2.22 µg/mL", "Unit Annotation": "%", "Measured Number": 93}
{"Molecule": "CC(C)n1c(/C=C/C2CC(O)CC(=O)O2)c(-c2ccc(F)cc2)c2ccccc2c1=O (stereo not drawn) [Compound G]", "Assay Metric": "inhibition at 2.22 µg/mL", "Unit Annotation": "%", "Measured Number": 81}
